- Test system: SNB-75
- ASSAY PROTOCOL: NCI-60 single-dose antiproliferative screen
- Type: cell-based
- TEST PARAMETERS: Homo sapiens, SNB-75, 48 h, read-out: growth percent
PARAMETER MEASURED: activity at 10 µM (%)
Numbers only; they are read as %.

- COMPOUND: "COc1cc(CNC(=O)CCCC/C=C/C(C)C)ccc1OCc1cn(-c2ccc(Br)cc2)nn1 [14k]"
  activity at 10 µM, %: 90.9
- COMPOUND: "COc1cc(CNC(=O)C[C@H](C)CCC=C(C)C)ccc1OCc1cn(-c2ccc(Cl)cc2)nn1 [18b]"
  activity at 10 µM, %: 41.6
- COMPOUND: "COc1cc(CNC(=O)CCCC/C=C/C(C)C)ccc1OCc1cn(-c2cccc(Cl)c2)nn1 [14b]"
  activity at 10 µM, %: 75.8

I would be grateful if you could share the reported activity at 10 µM for COc1cc(CNC(=O)CCCC/C=C/C(C)C)ccc1OCc1cn(-c2cccc([N+](=O)[O-])c2)nn1 [14f] .
92

----------
Measured activity at 10 µM of individual entries
- Test system: K-562
- ASSAY PROTOCOL: NCI-60 single-dose antiproliferative screen
- Assay type: cell-based
- TEST PARAMETERS: Homo sapiens, K562, 48 h, read-out: growth percent
Numbers only; they are read as %.

Reference set (7 entries):
- COMPOUND: "COc1cc(CNC(=O)CCCC/C=C/C(C)C)ccc1OCc1cn(-c2ccccc2Cl)nn1 [14c]"
  TARGET: "K-562"
  PARAMETER MEASURED: "activity at 10 µM"
  UNIT: "%"
  VALUE: 76.8
- COMPOUND: "COc1cc(CNC(=O)CCCC/C=C/C(C)C)ccc1OCc1cn(-c2cccc([N+](=O)[O-])c2)nn1 [14f]"
  TARGET: "K-562"
  PARAMETER MEASURED: "activity at 10 µM"
  UNIT: "%"
  VALUE: 81.5
- COMPOUND: "COc1cc(CNC(=O)CCCC/C=C/C(C)C)ccc1OCc1cn(-c2ccc(Cl)cc2)nn1 [14a]"
  TARGET: "K-562"
  PARAMETER MEASURED: "activity at 10 µM"
  UNIT: "%"
  VALUE: 66.7
- COMPOUND: "COc1cc(CNC(=O)CCCC/C=C/C(C)C)ccc1OCc1cn(-c2ccccc2F)nn1 [14i]"
  TARGET: "K-562"
  PARAMETER MEASURED: "activity at 10 µM"
  UNIT: "%"
  VALUE: 82.3
- COMPOUND: "COc1cc(CNC(=O)CCCC/C=C/C(C)C)ccc1OCc1cn(-c2ccc([N+](=O)[O-])cc2)nn1 [14e]"
  TARGET: "K-562"
  PARAMETER MEASURED: "activity at 10 µM"
  UNIT: "%"
  VALUE: 74.5
- COMPOUND: "COc1cc(CNC(=O)CCCC/C=C/C(C)C)ccc1OCc1cn(-c2ccc(Cl)c(Cl)c2)nn1 [14d]"
  TARGET: "K-562"
  PARAMETER MEASURED: "activity at 10 µM"
  UNIT: "%"
  VALUE: 77.1
- COMPOUND: "COc1cc(CNC(=O)CCCC/C=C/C(C)C)ccc1OCc1cn(-c2ccc(C(F)(F)F)cc2)nn1 [14g]"
  TARGET: "K-562"
  PARAMETER MEASURED: "activity at 10 µM"
  UNIT: "%"
  VALUE: 76.3

I would be grateful if you could share the reported activity at 10 µM for COc1cc(CNC(=O)C[C@H](C)CCC=C(C)C)ccc1OCc1cn(-c2ccc(Cl)cc2)nn1 [18b] .
53.5

----------
Measured activity at 10 µM of individual entries
- Tested on: OVCAR-8
- ASSAY PROTOCOL: NCI-60 single-dose antiproliferative screen
- Format: cell-based
- TEST PARAMETERS: Homo sapiens, OVCAR-8, 48 h, read-out: growth percent
Numbers only; they are read as %.

Reference set (5 entries):
- COMPOUND: "COc1cc(CNC(=O)CCCC/C=C/C(C)C)ccc1OCc1cn(-c2ccccc2OC)nn1 [14l]"
  TARGET: "OVCAR-8"
  activity at 10 µM (%): 82.2
- COMPOUND: "COc1cc(CNC(=O)CCCC/C=C/C(C)C)ccc1OCc1cn(-c2cc(OC)c(OC)c(OC)c2)nn1 [14m]"
  TARGET: "OVCAR-8"
  activity at 10 µM (%): 88.2
- COMPOUND: "CCc1ccc(-n2cc(COc3ccc(CNC(=O)CCCC/C=C/C(C)C)cc3OC)nn2)cc1 [14o]"
  TARGET: "OVCAR-8"
  activity at 10 µM (%): 91.1
- COMPOUND: "COc1cc(CNC(=O)CCCC/C=C/C(C)C)ccc1OCc1cn(-c2ccc(C#N)cc2)nn1 [14j]"
  TARGET: "OVCAR-8"
  activity at 10 µM (%): 63.3
- COMPOUND: "COc1cc(CNC(=O)CCCC/C=C/C(C)C)ccc1OCc1cn(-c2ccc(Cl)cc2)nn1 [14a]"
  TARGET: "OVCAR-8"
  activity at 10 µM (%): 79

I would be grateful if you could share the reported activity at 10 µM for COc1cc(CNC(=O)CCCC/C=C/C(C)C)ccc1OCc1cn(-c2ccc(C(F)(F)F)cc2)nn1 [14g] .
41.1

I would be grateful if you could share the reported activity at 10 µM for COc1cc(CNC(=O)CCCC/C=C/C(C)C)ccc1OCc1cn(-c2ccccc2Cl)nn1 [14c] .
89.6

I would be grateful if you could share the reported activity at 10 µM for COc1cc(CNC(=O)CCCC/C=C/C(C)C)ccc1OCc1cn(-c2cccc([N+](=O)[O-])c2)nn1 [14f] .
76.9

----------
- Test system: SNB-75
- ASSAY PROTOCOL: NCI-60 single-dose antiproliferative screen
- Assay type: cell-based
- TEST PARAMETERS: Homo sapiens, SNB-75, 48 h, read-out: growth percent
PARAMETER MEASURED: activity at 10 µM (%)
Numbers only; they are read as %.

Reference set (4 entries):
- COMPOUND: "COc1cc(CNC(=O)CCCC/C=C/C(C)C)ccc1OCc1cn(-c2ccccc2OC)nn1 [14l]"
  activity at 10 µM [%]: 103
- COMPOUND: "COc1cc(CNC(=O)CCCC/C=C/C(C)C)ccc1OCc1cn(-c2ccc(C(F)(F)F)cc2)nn1 [14g]"
  activity at 10 µM [%]: 49.7
- COMPOUND: "CCc1ccc(-n2cc(COc3ccc(CNC(=O)CCCC/C=C/C(C)C)cc3OC)nn2)cc1 [14o]"
  activity at 10 µM [%]: 92.6
- COMPOUND: "COc1cc(CNC(=O)CCCC/C=C/C(C)C)ccc1OCc1cn(-c2ccc(C)c(C)c2)nn1 [14p]"
  activity at 10 µM [%]: 91

I would be grateful if you could share the reported activity at 10 µM for COc1cc(CNC(=O)CCCC/C=C/C(C)C)ccc1OCc1cn(-c2ccccc2F)nn1 [14i] .
88.1

----------
- Test system: SK-MEL-28
- ASSAY PROTOCOL: NCI-60 single-dose antiproliferative screen
- Type: cell-based
- TEST PARAMETERS: Homo sapiens, SK-MEL-28, 48 h, read-out: growth percent
PARAMETER MEASURED: activity at 10 µM (%)
Numbers only; they are read as %.

Reference set (3 entries):
- COMPOUND: "COc1cc(CNC(=O)CCCC/C=C/C(C)C)ccc1OCc1cn(-c2ccc(C(F)(F)F)cc2)nn1 [14g]"
  VALUE: 107
- COMPOUND: "COc1cc(CNC(=O)CCCC/C=C/C(C)C)ccc1OCc1cn(-c2cccc([N+](=O)[O-])c2)nn1 [14f]"
  VALUE: 106
- COMPOUND: "COc1cc(CNC(=O)CCCC/C=C/C(C)C)ccc1OCc1cn(-c2ccc(C)cc2)nn1 [14n]"
  VALUE: 114

Query compound follows.
Request: activity at 10 µM, test system SK-MEL-28, entry COc1cc(CNC(=O)CCCC/C=C/C(C)C)ccc1OCc1cn(-c2ccc(Cl)c(Cl)c2)nn1 [14d]
104

----------
- System: M14
- ASSAY PROTOCOL: NCI-60 single-dose antiproliferative screen
- Assay type: cell-based
- TEST PARAMETERS: Homo sapiens, M14, 48 h, read-out: growth percent
Measured activity at 10 µM of individual entries
Numbers only; they are read as %.

- MOLECULE: "COc1cc(CNC(=O)CCCC/C=C/C(C)C)ccc1OCc1cn(-c2ccc(Br)cc2)nn1 [14k]"
  activity at 10 µM, %: 90.2
- MOLECULE: "COc1cc(CNC(=O)CCCC/C=C/C(C)C)ccc1OCc1cn(-c2ccc(C)c(C)c2)nn1 [14p]"
  activity at 10 µM, %: 93.5
- MOLECULE: "COc1cc(CNC(=O)CCCC/C=C/C(C)C)ccc1OCc1cn(-c2cccc([N+](=O)[O-])c2)nn1 [14f]"
  activity at 10 µM, %: 93.4
- MOLECULE: "COc1cc(CNC(=O)CCCC/C=C/C(C)C)ccc1OCc1cn(-c2ccc(Cl)c(Cl)c2)nn1 [14d]"
  activity at 10 µM, %: 92.7
- MOLECULE: "COc1cc(CNC(=O)C[C@H](C)CCC=C(C)C)ccc1OCc1cn(-c2ccc(Cl)cc2)nn1 [18b]"
  activity at 10 µM, %: 90.8

I would be grateful if you could share the reported activity at 10 µM for COc1cc(CNC(=O)CCCC/C=C/C(C)C)ccc1OCc1cn(-c2ccc(F)cc2)nn1 [14h] .
94

I would be grateful if you could share the reported activity at 10 µM for COc1cc(CNC(=O)CCCC/C=C/C(C)C)ccc1OCc1cn(-c2ccc(C)cc2)nn1 [14n] .
93.3

I would be grateful if you could share the reported activity at 10 µM for COc1cc(CNC(=O)CCCC/C=C/C(C)C)ccc1OCc1cn(-c2ccc([N+](=O)[O-])cc2)nn1 [14e] .
89.7

I would be grateful if you could share the reported activity at 10 µM for COc1cc(CNC(=O)CCCC/C=C/C(C)C)ccc1OCc1cn(-c2ccc(C(F)(F)F)cc2)nn1 [14g] .
97.5

Values were extracted from paper PMC9476207.
